Source of measurements: patent US8575197B2

Biological target: human P2X3 receptor (Homo sapiens (Human))
Sequence (P56373 whole entry): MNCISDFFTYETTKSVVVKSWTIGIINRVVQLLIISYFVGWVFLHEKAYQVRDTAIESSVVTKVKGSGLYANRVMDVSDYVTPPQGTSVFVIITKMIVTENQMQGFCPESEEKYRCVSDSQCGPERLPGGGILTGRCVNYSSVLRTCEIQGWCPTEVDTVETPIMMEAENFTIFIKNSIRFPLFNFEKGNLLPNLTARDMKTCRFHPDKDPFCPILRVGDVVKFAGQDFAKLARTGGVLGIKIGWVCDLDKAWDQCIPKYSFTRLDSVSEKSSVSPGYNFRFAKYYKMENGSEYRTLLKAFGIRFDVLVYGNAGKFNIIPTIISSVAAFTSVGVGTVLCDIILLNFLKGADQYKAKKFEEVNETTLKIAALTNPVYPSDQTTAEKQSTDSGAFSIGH
Assay: P2X3 receptor inhibition, ATP-evoked Fluo-3 calcium fluorescence (FDSS 3000)
Conditions: C6BU-1 cell transfected with human P2X3 receptor gene; ATP-evoked Fluo-3 fluorescence
Field: IC50. Provide a value for each of the compounds that follow.
Expressed in nM, but write only the number.

# input Give the measured IC50 for CC(C)C(=O)C1=C(O)C(=O)N(c2ccc(-c3cccs3)cc2)C1c1cccnc1OCCO (stereo not shown) [Compound I-229]
# output 29

# input Give the measured IC50 for CSc1ccc(N2C(=O)C(O)=C(C(=O)C(C)C)C2c2ccccc2OCC2CC2)cc1 (stereo not shown) [Compound I-589]
# output 32

# input Give the measured IC50 for COc1ncccc1C1C(C(=O)C(C)C)=C(O)C(=O)N1c1ccc(-c2ccc(C)s2)cc1 (stereo not shown) [Compound I-332]
# output 281

# input Give the measured IC50 for COc1ccccc1C1C(C(=O)C(C)(C)C)=C(O)C(=O)N1c1ccc(-c2cccs2)cc1 (stereo not shown) [Compound I-079]
# output 23

# input Give the measured IC50 for COc1ccc(C(=O)C2=C(O)C(=O)N(c3ccc(-c4ccco4)cc3)C2C2CCCCC2)cc1 (stereo not shown) [Compound I-015]
# output 12

# input Give the measured IC50 for Cc1ccc(-c2ccc(N3C(=O)C(O)=C(C(=O)C(C)C)C3c3ccccc3CCC(N)=O)cc2)o1 (stereo not shown) [Compound I-536]
# output 32

# input Give the measured IC50 for Cc1nc(-c2ccc(N3C(=O)C(O)=C(C(=O)C(C)C)C3c3ccccc3OCC#N)cc2)no1 (stereo not shown) [Compound I-508]
# output 133

# input Give the measured IC50 for Cc1cc(-c2ccc(N3C(=O)C(O)=C(C(=O)C(C)C)C3c3ccccc3OC(F)(F)F)cc2)cs1 (stereo not shown) [Compound I-322]
# output 102

# input Give the measured IC50 for CNC(=O)COc1ccccc1C1c2c(C(C)C)n[nH]c2C(=O)N1c1ccc(-c2ccsc2)cc1 (stereo not shown) [II-049]
# output 11

# input Give the measured IC50 for COCc1ccccc1C1C(C(=O)C(C)(C)C)=C(O)C(=O)N1c1ccc(-c2cc(C)no2)cc1 (stereo not shown) [Compound I-050]
# output 642

# input Give the measured IC50 for CC(C)c1n[nH]c2c1C(c1ccccc1NS(C)(=O)=O)N(c1ccc(-c3ccsc3)cc1)C2=O (stereo not shown) [II-088]
# output 4

# input Give the measured IC50 for CC(C)(C)c1n[nH]c2c1C(c1cccnc1OCCO)N(c1ccc(-c3ccon3)cc1)C2=O (stereo not shown) [II-036]
# output 231

# input Give the measured IC50 for CNC(=O)c1ncccc1C1C(C(=O)CC(C)C)=C(O)C(=O)N1c1ccc(-c2ccc(C)s2)cc1 (stereo not shown) [Compound I-573]
# output 123

# input Give the measured IC50 for Cc1nc(-c2ccc(N3C(=O)C(O)=C(C(=O)CC(C)C)C3c3ccccc3OC(F)F)cc2)no1 (stereo not shown) [Compound I-318]
# output 328

# input Give the measured IC50 for COc1ncccc1C1C(C(=O)C(C)C)=C(O)C(=O)N1c1ccc(-c2csc(C)c2)cc1 (stereo not shown) [Compound I-320]
# output 274

# input Give the measured IC50 for COc1ncccc1C1c2c(C(C)(C)CO)n[nH]c2C(=O)N1c1ccc(-c2ccsc2)cc1 (stereo not shown) [II-109]
# output 21

# input Give the measured IC50 for COc1ccccc1C1c2c(C(C)(C)C)n[nH]c2C(=O)N1c1ccc(Br)cn1 (stereo not shown) [II-246]
# output 871

# input Give the measured IC50 for COc1ccccc1C1C(C(=O)CC(C)C)=C(O)C(=O)N1c1ccc(-c2cscn2)cc1 (stereo not shown) [Compound I-420]
# output 257

# input Give the measured IC50 for COc1ccccc1C1C(C(=O)CC(C)C)=C(O)C(=O)N1c1ccc(-c2ccc(C)s2)cc1 (stereo not shown) [Compound I-327]
# output 93

# input Give the measured IC50 for COCc1ncccc1C1C(C(=O)C(C)(C)C)=C(O)C(=O)N1c1ccc(-c2ccsc2)cc1 (stereo not shown) [Compound I-162]
# output 41

# input Give the measured IC50 for COCc1ccccc1C1C(C(=O)CC2CCCC2)=C(O)C(=O)N1c1ccc(-c2ccsc2)cc1 (stereo not shown) [Compound I-439]
# output 116

# input Give the measured IC50 for Cc1ccc(-c2ccc(N3C(=O)C(O)=C(C(=O)C(C)C)C3c3ccccc3CC(=O)N(C)C)cc2)o1 (stereo not shown) [Compound I-493]
# output 105

# input Give the measured IC50 for CC(C)CC(=O)C1=C(O)C(=O)N(c2ccc(-c3ccoc3)cc2)C1c1ccccc1OCCO (stereo not shown) [Compound I-350]
# output 66

# input Give the measured IC50 for COCCOc1ccccc1C1C(C(=O)CC(C)C)=C(O)C(=O)N1c1ccc(C2=NCCS2)cc1 (stereo not shown) [Compound I-410]
# output 151

# input Give the measured IC50 for COc1ccccc1C1c2c(C(C)(C)CO)n[nH]c2C(=O)N1c1ccc(-c2ccsc2)cn1 (stereo not shown) [II-251]
# output 8

# input Give the measured IC50 for Cc1ccc(-c2ccc(N3C(=O)C(O)=C(C(=O)CC(C)C)C3c3cccnc3C(=O)NN(C)C)cc2)s1 (stereo not shown) [Compound I-576]
# output 237

# input Give the measured IC50 for CNc1cc(-c2ccc(N3C(=O)c4[nH]nc(C(C)(C)C)c4C3c3ccccc3OC)cc2)on1 (stereo not shown) [II-146]
# output 416

# input Give the measured IC50 for COc1ccccc1C1c2c(C(C)(C)CO)n[nH]c2C(=O)N1c1ccc(-c2ccsc2)cc1 (stereo not shown) [II-217]
# output 3

# input Give the measured IC50 for COCOc1ccccc1C1C(C(=O)CC(C)C)=C(O)C(=O)N1c1ccc(-c2noc(C)n2)cc1 (stereo not shown) [Compound I-316]
# output 130

# input Give the measured IC50 for COCCOc1ccccc1C1C(C(=O)C(C)(C)C)=C(O)C(=O)N1c1ccc(-c2cccs2)cc1 (stereo not shown) [Compound I-123]
# output 13

# input Give the measured IC50 for COc1ccccc1C1c2c(C(C)(C)C)n[nH]c2C(=O)N1c1ccc(SC)cc1 (stereo not shown) [II-201]
# output 33
